- Target of assay: hTRPA1 (Homo sapiens, UniProt O75762)
- Construct: Full-length hTRPA1 was obtained from Life Technologies (Carlsbad, CA)
- Sequence (O75762 whole entry): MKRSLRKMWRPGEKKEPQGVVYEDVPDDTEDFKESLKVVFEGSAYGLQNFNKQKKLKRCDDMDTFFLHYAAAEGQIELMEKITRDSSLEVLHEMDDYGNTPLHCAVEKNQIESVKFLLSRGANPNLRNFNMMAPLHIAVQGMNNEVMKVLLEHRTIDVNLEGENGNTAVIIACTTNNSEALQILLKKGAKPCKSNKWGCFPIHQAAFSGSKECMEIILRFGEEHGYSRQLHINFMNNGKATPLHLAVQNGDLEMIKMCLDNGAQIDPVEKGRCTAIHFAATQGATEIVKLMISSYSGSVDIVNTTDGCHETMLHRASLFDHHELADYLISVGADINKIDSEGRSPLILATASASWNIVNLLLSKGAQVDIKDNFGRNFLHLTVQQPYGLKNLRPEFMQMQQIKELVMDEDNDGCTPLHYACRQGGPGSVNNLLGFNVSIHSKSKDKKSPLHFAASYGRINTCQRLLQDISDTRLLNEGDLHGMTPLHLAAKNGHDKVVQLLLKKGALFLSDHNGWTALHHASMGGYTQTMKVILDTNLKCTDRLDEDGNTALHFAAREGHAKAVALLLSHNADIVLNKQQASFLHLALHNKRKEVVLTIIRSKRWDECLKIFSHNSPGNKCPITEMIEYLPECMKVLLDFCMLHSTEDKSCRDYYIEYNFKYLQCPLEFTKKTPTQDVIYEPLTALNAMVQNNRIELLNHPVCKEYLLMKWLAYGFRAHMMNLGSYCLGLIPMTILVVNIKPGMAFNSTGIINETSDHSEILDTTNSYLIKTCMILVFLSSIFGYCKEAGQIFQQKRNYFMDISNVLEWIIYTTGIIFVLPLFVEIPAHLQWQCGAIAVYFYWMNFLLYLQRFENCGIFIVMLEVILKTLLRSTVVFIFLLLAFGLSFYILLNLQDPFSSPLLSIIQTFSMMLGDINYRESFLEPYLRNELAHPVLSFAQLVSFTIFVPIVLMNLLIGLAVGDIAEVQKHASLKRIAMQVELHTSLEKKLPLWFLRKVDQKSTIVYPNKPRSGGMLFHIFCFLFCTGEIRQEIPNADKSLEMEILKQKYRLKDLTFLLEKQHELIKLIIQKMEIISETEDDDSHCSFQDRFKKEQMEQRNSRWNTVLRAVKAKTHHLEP
- Protocol description: Whole-cell patch-clamp: inhibition of agonist-induced hTRPA1 current
- Condition context: AITC 20 μM; patch-clamp, no extracellular Ca2+; mean ± SEM, n = 5-10; Hill fit
Reported metric: IC50 (µM)
Give your result in µM as a bare value.

Task item: Param item = CC1(C)C2CCC1(C)C(O)C2 (centres unmarked) ; retrieve measured IC50.
Reply: 200

Task item: Try the molecule `CC1(C)[C@@H]2CC[C@@]1(C)[C@](C)(O)C2`
Reply: 120

###

- Target of assay: hTRPA1 (Homo sapiens)
- Construct: Full-length hTRPA1 was obtained from Life Technologies (Carlsbad, CA); host or cells: HEK293T
- Protocol description: Whole-cell patch-clamp: inhibition of agonist-induced hTRPA1 current
- Assay type: cell-based
- Condition context: AITC 20 μM; test compound 1 mM; no extracellular Ca2+; -60 mV
Reported metric: Inhibition of AITC-induced hTRPA1 current

CC12CCC(C1)C(C)(C)C2O (stereo not shown) | completely inhibited
CC1(C)[C@@H]2CC[C@@]1(C)[C@](C)(O)C2 | completely inhibited
CC1(C)C2CCC1(C)C(O)C2 (stereo not shown) | completely inhibited
